Data origin, for the record: ChEMBL document CHEMBL1201862

Test system: SW-620
procedure.details: NCI tumour cell line growth inhibition, 48 h
Calls of active or inactive are those of the source. Cut-off read from the data, not from the text of the source: active = GI50 up to about 1.1 µM and inactive = higher.
endpoint.label: GI50

[[record]]
compound = "COc1ccccc1C1(c2c(OC)c(=O)c2=O)SCCCS1"
endpoint_label = "GI50"
result = "> 100 µM (inactive)"

[[record]]
compound = "C=C1C(=O)O[C@@H]2C(=O)[C@@H](C)CCC/C(C)=C/CC[C@@]3(C)O[C@@H]3C[C@@H]12"
endpoint_label = "GI50"
result = "20.8 µM (inactive)"


State recorded GI50 for all listed compounds.
1. O=C(O)c1cnc2c(ccc3ncc(C(=O)O)c(O)c32)c1O
2. COc1ccc(C2=NN(c3ccccc3)C[N+](c3ccc(OC)cc3)=N2)cc1
3. CN/N=C(\C)c1c(O)cc(C)oc1=O
4. FC(F)(Sc1ccccc1)c1nc2ccccc2o1

**A:**
1. > 100 µM (inactive)
2. 24.5 µM (inactive)
3. > 100 µM (inactive)
4. 61.1 µM (inactive)

State recorded GI50 for all listed compounds.
1. N=C(N)N/N=C/c1c(Cl)nc2sccn12
2. COC(=O)C(=O)C(C(=O)C(=O)Nc1ccc([N+](=O)[O-])cc1[N+](=O)[O-])c1nc2ccc(Cl)cc2nc1O (stereo unspecified)
3. CC(C)N(C(=O)C12C3C4C1C1C2C3C41C(O)C(C)(C)C)C(C)C (stereo unspecified)
4. O=C1N/C(=N\N=C\c2ccccc2)C2(CCCCC2)O1
5. C/C(=N\NC(=O)c1ccccc1O)c1c(O)cc(C)oc1=O

**A:**
18 µM (inactive)
> 100 µM (inactive)
> 50 µM (inactive)
> 100 µM (inactive)
> 100 µM (inactive)

---

Would you mind telling me the reported GI50 of each entry?
Tested on: RXF 393
procedure.details: NCI tumour cell line growth inhibition, 48 h
Activity calls are given as the source filed them. Rule as the data show it: active = GI50 up to about 1.1 µM and inactive = higher.

[[record]]
compound = "NC1CC(=O)c2cc(Br)sc21 (stereo not given)"
subject_of_test = "RXF 393"
result = "> 100 µM (inactive)"

[[record]]
compound = "O=C(O)c1ccc(Cc2ccccc2C(=O)O)cc1"
subject_of_test = "RXF 393"
result = "> 100 µM (inactive)"

[[record]]
compound = "Cc1cc(NC(=S)SCc2ccc(F)cc2)c([N+](=O)[O-])cc1C"
subject_of_test = "RXF 393"
result = "22.9 µM (inactive)"

[[record]]
compound = "COc1ccc(C(=O)/C=C/c2cc(O)c(O)cc2F)c(OC)c1"
subject_of_test = "RXF 393"
result = "9.68 µM (inactive)"

[[record]]
compound = "N=C(N)N/N=C/c1c(Cl)nc2sccn12"
subject_of_test = "RXF 393"
result = "28.2 µM (inactive)"

[[record]]
compound = "Cc1ccc([N+](=O)[O-])cc1S(=O)(=O)Nc1ccc(C2=NN(S(=O)(=O)c3cc([N+](=O)[O-])ccc3C)C(c3cccs3)C2)cc1 (stereo not given)"
subject_of_test = "RXF 393"
result = "56.5 µM (inactive)"

[[record]]
compound = "Nc1ccc(C(=O)N/C(=C\\c2cccc([N+](=O)[O-])c2)c2nc3ccccc3[nH]2)cc1"
subject_of_test = "RXF 393"
result = "24.9 µM (inactive)"

[[record]]
compound = "CN(C(=O)Cc1ccc(Cl)c(Cl)c1)[C@@H]1CCCC[C@H]1[N+]1(C)CC=CC1"
subject_of_test = "RXF 393"
result = "> 100 µM (inactive)"

[[record]]
compound = "Fc1ccccc1C1CC(C(c2ccccc2)c2ccccc2)=Nc2ccccc2S1 (stereo not given)"
subject_of_test = "RXF 393"
result = "4.63 µM (inactive)"


**Q:** RXF 393 / GI50 / "COC(=O)[C@@H]1O[C@]12[C@@H](CO[Si](C)(C)C(C)(C)C)O[C@@H](n1cc(C)c(=O)[nH]c1=O)[C@@H]2O[Si](C)(C)C(C)(C)C" : value?
**A:** 7.35 µM (inactive)

---

Tested on: NCI-H23
procedure.details: NCI tumour cell line growth inhibition, 48 h
The source made the active and inactive calls. Cut-off read from the data, not from the text of the source: active = GI50 up to about 1.1 µM and inactive = higher.
Would you mind telling me the reported GI50 of each entry?

[[record]]
compound = "N#C/C(=C\\c1ccc(O)c(O)c1)C(N)=S"
result = "64 µM (inactive)"

[[record]]
compound = "CCOC(=O)[C@H]1Nc2ccccc2C2c3ccccc3CC21 (stereo partly specified)"
result = "79.6 µM (inactive)"

[[record]]
compound = "CCOC(=O)CCSc1nc2ccc(I)cc2c(=O)n1Cc1ccccc1"
result = "15.6 µM (inactive)"


State recorded GI50 for all listed compounds.
1. CCc1cccc(C)c1N1C(=O)C(=O)C(c2nc3ccccc3o2)C(=O)C1=O
2. c1ccc(-c2nnn(CCN3CCCCC3)n2)cc1
3. Cc1ccc(/C=C2\CCS(=O)(=O)c3ccccc3C2=O)cc1
4. CCOC(=O)c1cc(/C=C/C(C)=C/C(=O)OC)n(C)c1C
5. Fc1ccccc1C1CC(C(c2ccccc2)c2ccccc2)=Nc2ccccc2S1 (stereo unspecified)
6. COc1cc2c(c(OC)c1)C(C)=NC(C)C2 (stereo unspecified)

**A:**
1. > 100 µM (inactive)
2. > 100 µM (inactive)
3. 15.5 µM (inactive)
4. > 100 µM (inactive)
5. 5.89 µM (inactive)
6. > 100 µM (inactive)

State recorded GI50 for all listed compounds.
1. c1ccc(CSc2ccccc2CN2CCN(Cc3ccccc3SCc3ccccc3)CCN(Cc3ccccc3SCc3ccccc3)CC2)cc1
2. Cc1cc(=O)n2c3c(c4c(cc13)c(CO)cc(=O)n4C)OC2

**A:**
0.951 µM (active)
13.5 µM (inactive)

---

Would you mind telling me the reported GI50 of each entry?
Tested on: KM-20L2
procedure.details: NCI tumour cell line growth inhibition, 48 h
The source made the active and inactive calls. Rule as the data show it: active = GI50 up to about 1.1 µM and inactive = higher.

In the examples that follow, each entry is paired with its recorded GI50.
[[record]]
molecule = "N#Cc1cccc(N2C(=O)c3ccc(C(=O)c4ccc5c(c4)C(=O)N(c4cccc(C#N)c4)C5=O)cc3C2=O)c1"
endpoint_label = "GI50"
result = "> 100 µM (inactive)"

[[record]]
molecule = "CCCCCCCCCCCCCP(=O)(OC)OC"
endpoint_label = "GI50"
result = "26.8 µM (inactive)"

[[record]]
molecule = "CCc1cccc(C)c1N1C(=O)C(=O)C(c2nc3ccccc3o2)C(=O)C1=O"
endpoint_label = "GI50"
result = "> 100 µM (inactive)"


State recorded GI50 for all listed compounds.
1. Cc1ccc2nc(N)[nH]c(=O)c2c1Sc1ccncc1
2. O=C1CCCC(=O)N1CCc1c[nH]c2ccccc12

**A:**
10 µM (inactive)
> 100 µM (inactive)

---

System: UO-31
procedure.details: NCI tumour cell line growth inhibition, 48 h
Calls of active or inactive are those of the source. No stated cut-off is given here; in the data, active = GI50 up to about 1.1 µM and inactive = higher.
Would you mind telling me the reported GI50 of each entry?

[[record]]
compound = "COC(=O)NN1C(C)=C(C(=O)OC)C2(CCOC2=O)C1(C)O (stereo not drawn)"
subject_of_test = "UO-31"
endpoint_label = "GI50"
result = "> 100 µM (inactive)"

[[record]]
compound = "c1ccc(-c2sc(-c3ccccc3)c3c2C(c2ccccc2)c2c(-c4ccccc4)sc(-c4ccccc4)c2C3c2ccccc2)cc1 (stereo not drawn)"
subject_of_test = "UO-31"
endpoint_label = "GI50"
result = "> 100 µM (inactive)"

[[record]]
compound = "CCOC(=O)[C@H]1Nc2ccccc2C2c3ccccc3CC21 (stereo partly drawn)"
subject_of_test = "UO-31"
endpoint_label = "GI50"
result = "68.4 µM (inactive)"


State recorded GI50 for all listed compounds.
1. C=C1C(=O)O[C@@H]2C(=O)[C@@H](C)CCC/C(C)=C/CC[C@@]3(C)O[C@@H]3C[C@@H]12
2. Nc1ncnc2c1ncn2C(=O)NC12CC3CC(CC(C3)C1)C2
3. O=C1CC(C(OCc2ccccc2)C(OCc2ccccc2)C(OCc2ccccc2)C(COCc2ccccc2)OCc2ccccc2)CC(=O)N1 (stereo not drawn)
4. COC(=O)N/N=C(/CC1(O)C(=O)Nc2ccc([N+](=O)[O-])cc21)c1ccccc1 (stereo not drawn)
5. O=[N+]([O-])c1cc(C(F)(F)F)ccc1S(=O)(=O)N[C@@H]1CCCC[C@H]1NS(=O)(=O)c1ccc(C(F)(F)F)cc1[N+](=O)[O-]

**A:**
1. 92.7 µM (inactive)
2. > 100 µM (inactive)
3. 60.1 µM (inactive)
4. 40.9 µM (inactive)
5. 3.56 µM (inactive)

---

Would you mind telling me the reported GI50 of each entry?
Tested on: NCI-H460
procedure.details: NCI tumour cell line growth inhibition, 48 h
Active and inactive are the calls of the source. Cut-off read from the data, not from the text of the source: active = GI50 up to about 1.1 µM and inactive = higher.

[[record]]
molecule = "Brc1ccc(C[N+]23CN4CN(CN(C4)C2)C3)cc1"
endpoint_label = "GI50"
result = "28.3 µM (inactive)"

[[record]]
molecule = "O=c1cc(-c2ccccc2)oc2ccc(Oc3nnnn3-c3ccccc3)cc12"
endpoint_label = "GI50"
result = "> 100 µM (inactive)"


State recorded GI50 for all listed molecules.
1. N#Cc1cccc(N2C(=O)c3ccc(C(=O)c4ccc5c(c4)C(=O)N(c4cccc(C#N)c4)C5=O)cc3C2=O)c1
2. COc1ccccc1C1(c2c(OC)c(=O)c2=O)SCCCS1
3. COc1ccc(N2C(=O)CC(C3CC(C(C)(C)C)CCC3=O)C2=O)cc1 (stereo unspecified)

**A:**
["> 100 µM (inactive)", "> 100 µM (inactive)", "> 100 µM (inactive)"]
